Test system: BT-474
MEASUREMENT NOTES: normalised viability (% of control), CellTiter-Blue; higher = more viable cells (about 100 = DMSO control)
CONDITION: 1000 nM; incubation time: 72 h
Can you tell me normalised viability for the items I'm about to list?

Here's what some known entries look like.
CC1(C)CCC(c2ccc(Cl)cc2)=C(CN2CCN(c3ccc(C(=O)NS(=O)(=O)c4ccc(N[C@H](CCN5CCOCC5)CSc5ccccc5)c(S(=O)(=O)C(F)(F)F)c4)cc3)CC2)C1; 95.2%
CC(C)(C)NC(=O)[C@H]1CC[C@H]2[C@@H]3CC[C@H]4NC(=O)C=C[C@]4(C)[C@H]3CC[C@]12C [Finasteride]; 111%
Nc1ccn([C@@H]2O[C@H](CO)[C@@H](O)C2(F)F)c(=O)n1; 101%

Kindly give each listed record's normalised viability.
1. COc1cc(Nc2c(C#N)cnc3cc(OCCCN4CCN(C)CC4)c(OC)cc23)c(Cl)cc1Cl
2. CC(=O)[C@]1(O)Cc2c(O)c3c(c(O)c2[C@@H](O[C@H]2C[C@H](N)[C@H](O)[C@H](C)O2)C1)C(=O)c1ccccc1C3=O
3. CCNC(=O)c1noc(-c2cc(C(C)C)c(O)cc2O)c1-c1ccc(CN2CCOCC2)cc1

Reply |
94.6%
7.38%
22.3%
